Recorded pIC50 for the following compounds
targetOrTestSystem: human Gal-3 (hGal-3) (Homo sapiens (Human), UniProt P17931)
Sequence (P17931 whole entry): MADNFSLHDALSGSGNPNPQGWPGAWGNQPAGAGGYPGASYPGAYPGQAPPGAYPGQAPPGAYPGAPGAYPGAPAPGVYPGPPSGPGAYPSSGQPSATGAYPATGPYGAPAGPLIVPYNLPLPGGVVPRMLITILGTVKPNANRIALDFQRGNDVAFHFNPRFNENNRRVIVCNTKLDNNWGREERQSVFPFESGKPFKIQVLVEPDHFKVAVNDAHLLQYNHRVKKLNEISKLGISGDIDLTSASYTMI
testDescription: competitive binding assay: biotinylated hGal-3 binding to microplate-adsorbed asialofetuin (ASF)
conditionInfo: Table 11; read-out: IC50 (Gal-3 inhibition)
Interpret pIC50 as the negative base-10 log of the concentration measured in mol/L.

Here's what some known entries look like.
- CO[C@@H]1[C@@H](n2cc(-c3cc(F)c(F)c(F)c3)nn2)[C@@H](O)[C@@H](CO)O[C@H]1S[C@@H](c1nc(C)c(C)nc1C)C1(O)CCC(F)(F)CC1 [Example 2.44.119S.I.]: 5.29
- CO[C@@H]1[C@@H](n2cc(-c3cc(F)c(F)c(F)c3)nn2)[C@@H](O)[C@@H](CO)O[C@H]1SC(c1nccc(Cl)c1C)C1(O)CCC(F)(F)CC1 (stereo partly drawn) [Example 2.44.141.I.]: 6.82

Switching to the query record.
Request: Suppose we examine the compound CO[C@@H]1[C@@H](n2cc(-c3cc(F)c(F)c(F)c3)nn2)[C@@H](O)[C@@H](CO)O[C@H]1S[C@@H](c1nccc(Cl)c1Cl)C1(O)CCC(F)(F)CC1 [Example 2.44.143S.I.] ; what pIC50 value has been reported?
Result: 5.00

---

IC50, human Gal-1 (hGal-1) (Homo sapiens (Human), UniProt P09382), per-entry values.
Quick reminder: number only, in nM, skip the unit.

* CCc1c([C@@H](S[C@@H]2O[C@H](CO)[C@H](O)[C@H](n3cc(-c4cc(F)c(F)c(F)c4)nn3)[C@H]2O)C2(O)CCC(F)(F)CC2)noc1C1CC1 [Example 2.44.130R.] | 160
* CO[C@@H]1[C@@H](n2cc(-c3cc(F)c(F)c(F)c3)nn2)[C@@H](O)[C@@H](CO)O[C@H]1S[C@H](c1nocc1C)C1(O)CCOCC1 [Example 2.41.120R.I.] | 500
* CC(C)(O)C(S[C@@H]1O[C@H](CO)[C@H](O)[C@H](n2cc(-c3cc(F)c(F)c(F)c3)nn2)[C@H]1O)c1ccccc1-c1ccccc1 (stereo partly shown) | 400

Request: Requested field: IC50. Item: CC(C)(O)[C@H](S[C@@H]1O[C@H](CO)[C@H](O)[C@H](n2cc(-c3cc(F)c(F)c(F)c3)nn2)[C@H]1O)c1ccccc1Cl [Example 2.31.111R.]
Result: 3190

Request: What value of measured IC50 is listed for CCO[C@@H]1[C@@H](n2cc(-c3cc(F)c(F)c(F)c3)nn2)[C@@H](O)[C@@H](CO)O[C@H]1S[C@H](c1ncccc1C)C1(O)CCC(F)(F)CC1 [Example 2.44.126R.II.] ?
Result: 870

Request: For the compound CC(C)Cc1ccccc1[C@H](S[C@@H]1O[C@H](CO)[C@H](O)[C@H](n2cc(-c3cc(F)c(F)c(F)c3)nn2)[C@H]1O)C(C)(C)O [Example 2.31.107S.] , what IC50 is on record?
Result: 56600

Request: I am curious: what IC50 value has been reported for CCc1cccnc1[C@@H](S[C@@H]1O[C@H](CO)[C@H](O)[C@H](n2cc(-c3cc(F)c(F)c(F)c3)nn2)[C@H]1OC)C1(O)CCC(F)(F)CC1 [Example 2.44.142R.I.] ?
Result: 100

---

// reported IC50 for each item listed
targetOrTestSystem: human Gal-1 (hGal-1) (Homo sapiens (Human))
Express it in µM; write the number only.

Solved cases (3 shown):
• Cc1conc1[C@H](S[C@@H]1O[C@H](CO)[C@H](O)[C@H](n2cc(-c3cc(F)c(F)c(F)c3)nn2)[C@H]1O)C1(O)CCC(F)(F)CC1 [Example 2.44.120S.] = 22.6
• Cc1nc(C)c([C@@H](S[C@@H]2O[C@H](CO)[C@H](O)[C@H](n3cc(-c4cc(F)c(F)c(F)c4)nn3)[C@H]2O)C2(O)CCOCC2)nc1C [Example 2.41.119R.] = 0.49
• CO[C@@H]1[C@@H](n2cc(-c3cc(F)c(F)c(F)c3)nn2)[C@@H](O)[C@@H](CO)O[C@H]1S[C@H](c1ncccc1C(C)C)C1(O)CCC(F)(F)CC1 [Example 2.44.132R.I.] = 0.1

Moving on to the next compound.
Request: Which measured IC50 belongs to OC[C@H]1O[C@@H](S[C@@H](c2ccccc2Cl)C2(O)CCC(F)(F)CC2)[C@H](O)[C@@H](n2cc(-c3cc(F)c(F)c(F)c3)nn2)[C@H]1O [Example 2.44.111S.] , tested on human Gal-1 (hGal-1) (Homo sapiens (Human))?
Result: 47.5

---

targetOrTestSystem: human Gal-1 (hGal-1) (Homo sapiens (Human), UniProt P09382)
Sequence (P09382 whole entry): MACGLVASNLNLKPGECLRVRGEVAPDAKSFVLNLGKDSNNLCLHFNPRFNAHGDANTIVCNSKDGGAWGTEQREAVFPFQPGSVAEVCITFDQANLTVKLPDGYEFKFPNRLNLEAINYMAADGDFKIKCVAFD
endpointName: pIC50
To interpret pIC50, take it as minus log10 of a concentration measured in moles per litre.

For orientation, consider the following solved cases.
- COCC(S[C@@H]1O[C@H](CO)[C@H](O)[C@H](n2cc(-c3cc(F)c(F)c(F)c3)nn2)[C@H]1O)c1ccccc1 (some centres unmarked) [Example 2.30.100.OMe, reference compound]: 4.25
- OC[C@H]1O[C@@H](SC(c2ccccc2C(F)(F)F)C2(O)CCC(F)(F)CC2)[C@H](O)[C@@H](n2cc(-c3cc(F)c(F)c(F)c3)nn2)[C@H]1O (some centres unmarked): 6.02
- OC[C@H]1O[C@@H](S[C@H](c2ccccc2Cl)C2(O)CCC(F)(F)CC2)[C@H](O)[C@@H](n2cc(-c3cc(F)c(F)c(F)c3)nn2)[C@H]1O [Example 2.44.111R.]: 5.97
- Cc1conc1[C@H](S[C@@H]1O[C@H](CO)[C@H](O)[C@H](n2cc(-c3cc(F)c(F)c(F)c3)nn2)[C@H]1O)C(C)(C)O [Example 2.31.120S.]: 4.21
- Cc1ccccc1C(S[C@@H]1O[C@H](CO)[C@H](O)[C@H](n2cc(-c3cc(F)c(F)c(F)c3)nn2)[C@H]1O)C1(O)CCOCC1 (some centres unmarked): 5.79

Request: Any idea what pIC50 was measured for CN1CCC(O)([C@@H](S[C@@H]2O[C@H](CO)[C@H](O)[C@H](n3cc(-c4cc(F)c(F)c(F)c4)nn3)[C@H]2O)c2ccccc2C(F)(F)F)CC1 [Example 2.40.112S.] ?
Result: 4.66

Request: Consider the molecule OC[C@H]1O[C@@H](S[C@H](c2ccccc2C(F)(F)F)C2(O)CCOCC2)[C@H](O)[C@@H](n2cc(-c3cc(F)c(F)c(F)c3)nn2)[C@H]1O [Example 2.41.112R.] and give its measured pIC50.
Result: 6.05

Request: Please report the recorded pIC50 for Cc1cccnc1[C@@H](S[C@@H]1O[C@H](CO)[C@H](O)[C@H](n2cc(-c3cc(F)c(F)c(F)c3)nn2)[C@H]1O)C1(O)CCS(=O)(=O)CC1 [Example 2.66.126R.] .
Result: 6.77

Request: Sample Cc1nc(C)c([C@H](S[C@@H]2O[C@H](CO)[C@H](O)[C@H](n3cc(-c4cc(F)c(F)c(F)c4)nn3)[C@H]2O)C2(O)CCN(C)CC2)nc1C [Example 2.40.119S.] — what was its pIC50?
Result: 4.97

Request: Which value of pIC50 has been reported for Cc1ccnnc1[C@H](S[C@@H]1O[C@H](CO)[C@H](O)[C@H](n2cc(-c3cc(F)c(F)c(F)c3)nn2)[C@H]1O)C1(O)CCC(F)(F)CC1 [Example 2.44.135S.] in the records?
Result: 5.27

---

targetOrTestSystem: human Gal-3 (hGal-3) (Homo sapiens (Human))
testDescription: competitive binding assay: biotinylated hGal-3 binding to microplate-adsorbed asialofetuin (ASF)
conditionInfo: Table 5; read-out: IC50 (Gal-3 inhibition)
endpointName: IC50 (nM)
Write the number in nM without appending the unit.

Please review the entries below; each comes with its answer.
* OC[C@H]1O[C@@H](S[C@H](c2ccccc2C(F)(F)F)C2(O)CCOCC2)[C@H](O)[C@@H](n2cc(-c3cc(F)c(F)c(F)c3)nn2)[C@H]1O [Example 2.41.112R.] | 80
* Cc1ccccc1C(S[C@@H]1O[C@H](CO)[C@H](O)[C@H](n2cc(-c3cc(F)c(F)c(F)c3)nn2)[C@H]1O)C1(O)CCN(C)CC1 (stereo partly drawn) | 90

Please examine the following record next.
Request: Entry Cc1ccccc1[C@@H](S[C@@H]1O[C@H](CO)[C@H](O)[C@H](n2cc(-c3cc(F)c(F)c(F)c3)nn2)[C@H]1O)C1(O)CCCC1 [Example 2.38.102R.] has what IC50?
Result: 110
